test: activity coefficient (dimensionless); of the first substance listed, at infinite dilution; xn = mol fraction of the nth substance listed; conditions: 348.15 K; 100 kPa; Liquid; Chromatography; x1 = 0
I'd be grateful if you could share measured activity coefficient for these entries.

COMPOUND: CC#N [acetonitrile] + CCCC[n+]1ccc(C#N)cc1.O=S(=O)([N-]S(=O)(=O)C(F)(F)F)C(F)(F)F
activity coefficient: 0.5
--
COMPOUND: CCCCCCCCC [nonane] + CCCC[n+]1ccc(C#N)cc1.O=S(=O)([N-]S(=O)(=O)C(F)(F)F)C(F)(F)F
activity coefficient: 69.4
--
COMPOUND: CCC(C)O (stereo not drawn) [butan-2-ol] + CCCC[n+]1ccc(C#N)cc1.O=S(=O)([N-]S(=O)(=O)C(F)(F)F)C(F)(F)F
activity coefficient: 2.06
--
COMPOUND: CCCCCCCCCC [decane] + CCCC[n+]1ccc(C#N)cc1.O=S(=O)([N-]S(=O)(=O)C(F)(F)F)C(F)(F)F
activity coefficient: 93.8
--
COMPOUND: CCOC(C)(C)C [2-ethoxy-2-methylpropane] + CCCC[n+]1ccc(C#N)cc1.O=S(=O)([N-]S(=O)(=O)C(F)(F)F)C(F)(F)F
activity coefficient: 8.78
--
COMPOUND: C=CCCCCCC [oct-1-ene] + CCCC[n+]1ccc(C#N)cc1.O=S(=O)([N-]S(=O)(=O)C(F)(F)F)C(F)(F)F
activity coefficient: 26.3

Go through the items and report each one's activity coefficient.
1. C=CCCCC [hex-1-ene] + CCCC[n+]1ccc(C#N)cc1.O=S(=O)([N-]S(=O)(=O)C(F)(F)F)C(F)(F)F
2. CCO [ethanol] + CCCC[n+]1ccc(C#N)cc1.O=S(=O)([N-]S(=O)(=O)C(F)(F)F)C(F)(F)F

12.9
1.47

====

experiment: activity coefficient (dimensionless); of the first substance listed, at infinite dilution; xn = mol fraction of the nth substance listed; conditions: 358.15 K; 100 kPa; Liquid; Chromatography; x1 = 0
VALUE TYPE: activity coefficient
One number for each entry.

COMPOUND: CCCCCC [hexane] + CCCC[n+]1ccc(C#N)cc1.O=S(=O)([N-]S(=O)(=O)C(F)(F)F)C(F)(F)F
MEASUREMENT: 24.2
//
COMPOUND: CCC(=O)OC [methyl propanoate] + CCCC[n+]1ccc(C#N)cc1.O=S(=O)([N-]S(=O)(=O)C(F)(F)F)C(F)(F)F
MEASUREMENT: 1.06
//
COMPOUND: C#CCCC [1-pentyne] + CCCC[n+]1ccc(C#N)cc1.O=S(=O)([N-]S(=O)(=O)C(F)(F)F)C(F)(F)F
MEASUREMENT: 3.77
//
COMPOUND: C=C(C)c1ccccc1 [(1-methylethenyl)benzene] + CCCC[n+]1ccc(C#N)cc1.O=S(=O)([N-]S(=O)(=O)C(F)(F)F)C(F)(F)F
MEASUREMENT: 2.7
//
COMPOUND: CCC(C)(C)OC [2-methoxy-2-methylbutane] + CCCC[n+]1ccc(C#N)cc1.O=S(=O)([N-]S(=O)(=O)C(F)(F)F)C(F)(F)F
MEASUREMENT: 5.01
//
COMPOUND: CC(C)CO [2-methyl-1-propanol] + CCCC[n+]1ccc(C#N)cc1.O=S(=O)([N-]S(=O)(=O)C(F)(F)F)C(F)(F)F
MEASUREMENT: 2.18
//
COMPOUND: c1ccccc1 [benzene] + CCCC[n+]1ccc(C#N)cc1.O=S(=O)([N-]S(=O)(=O)C(F)(F)F)C(F)(F)F
MEASUREMENT: 1.32
//
COMPOUND: CCO [ethanol] + CCCC[n+]1ccc(C#N)cc1.O=S(=O)([N-]S(=O)(=O)C(F)(F)F)C(F)(F)F
MEASUREMENT: 1.39

I need activity coefficient for every entry listed below, if you could help.
1. CCCCCCC [heptane] + CCCC[n+]1ccc(C#N)cc1.O=S(=O)([N-]S(=O)(=O)C(F)(F)F)C(F)(F)F
2. CC(C)c1ccccc1 [isopropylbenzene] + CCCC[n+]1ccc(C#N)cc1.O=S(=O)([N-]S(=O)(=O)C(F)(F)F)C(F)(F)F
3. O [water] + CCCC[n+]1ccc(C#N)cc1.O=S(=O)([N-]S(=O)(=O)C(F)(F)F)C(F)(F)F
4. CCCCCO [pentan-1-ol] + CCCC[n+]1ccc(C#N)cc1.O=S(=O)([N-]S(=O)(=O)C(F)(F)F)C(F)(F)F
5. CCC(C)CC [3-methylpentane] + CCCC[n+]1ccc(C#N)cc1.O=S(=O)([N-]S(=O)(=O)C(F)(F)F)C(F)(F)F
6. C=CCCCCC [1-heptene] + CCCC[n+]1ccc(C#N)cc1.O=S(=O)([N-]S(=O)(=O)C(F)(F)F)C(F)(F)F
7. C1CCCCC1 [cyclohexane] + CCCC[n+]1ccc(C#N)cc1.O=S(=O)([N-]S(=O)(=O)C(F)(F)F)C(F)(F)F

1: 33.5; 2: 4.47; 3: 2.16; 4: 2.81; 5: 21.7; 6: 18.5; 7: 12.4

Attribution: the NIST ThermoML archive (doi:10.1016/j.jct.2016.01.017)
